Entries annotated with measured OD450
- Study Target: T1, mouse LAG-3 protein with hFc tag (mLAG-3-hFc protein) (mouse; human, UniProt Q61790 24-442)
- T1 construct: Made in HEK293 cells; also called mouse LAG-3 extracellular domain protein; not shown: human IgG Fc fragment (hFc) of the pCpC vector
- T1 sequence: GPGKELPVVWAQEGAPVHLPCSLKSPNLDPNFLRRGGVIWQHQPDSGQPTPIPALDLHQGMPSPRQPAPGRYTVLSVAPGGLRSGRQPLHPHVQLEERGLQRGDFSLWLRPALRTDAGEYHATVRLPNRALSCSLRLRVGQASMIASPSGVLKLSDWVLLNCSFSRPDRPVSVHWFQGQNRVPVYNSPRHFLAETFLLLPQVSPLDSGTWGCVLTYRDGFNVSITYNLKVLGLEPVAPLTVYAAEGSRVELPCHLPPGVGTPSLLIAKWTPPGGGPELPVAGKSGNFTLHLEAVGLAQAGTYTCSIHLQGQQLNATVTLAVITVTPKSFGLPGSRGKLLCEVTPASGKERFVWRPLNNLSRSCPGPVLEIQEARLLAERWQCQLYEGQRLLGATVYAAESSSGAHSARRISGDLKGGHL
- Assay Details: ELISA, mLAG-3-hFc coated; 0.0667 nM
Measured Attribute: OD450

405B8H3 (LAG-3 mouse-human chimeric antibody) (antibody, V domains shown, also called mouse-human chimeric antibody 405B8H3) VH: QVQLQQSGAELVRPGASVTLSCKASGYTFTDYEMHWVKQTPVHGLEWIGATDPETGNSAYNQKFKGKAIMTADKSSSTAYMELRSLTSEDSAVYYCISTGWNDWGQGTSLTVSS VL: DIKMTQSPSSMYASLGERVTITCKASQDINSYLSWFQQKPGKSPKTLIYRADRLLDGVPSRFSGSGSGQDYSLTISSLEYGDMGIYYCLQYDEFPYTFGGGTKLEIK : 0.08 OD450
409B11E12 (LAG-3 mouse-human chimeric antibody) (antibody, V domains shown) VH: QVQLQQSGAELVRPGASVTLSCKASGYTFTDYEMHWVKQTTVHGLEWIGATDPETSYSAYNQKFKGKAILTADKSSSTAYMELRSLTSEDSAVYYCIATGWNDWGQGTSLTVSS VL: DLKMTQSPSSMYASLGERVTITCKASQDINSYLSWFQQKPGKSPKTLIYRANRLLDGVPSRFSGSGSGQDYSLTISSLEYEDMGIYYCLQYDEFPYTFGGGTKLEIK : 0.09 OD450
409D4E10 (LAG-3 mouse-human chimeric antibody) (antibody, V domains shown) VH: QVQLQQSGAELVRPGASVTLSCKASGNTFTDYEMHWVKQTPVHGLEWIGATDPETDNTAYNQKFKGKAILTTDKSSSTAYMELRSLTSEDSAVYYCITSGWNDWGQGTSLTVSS VL: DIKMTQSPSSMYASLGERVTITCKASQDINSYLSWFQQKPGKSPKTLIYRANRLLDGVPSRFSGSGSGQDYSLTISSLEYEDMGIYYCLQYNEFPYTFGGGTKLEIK : 0.13 OD450
105F1E10 (LAG-3 mouse-human chimeric antibody) (antibody, V domains shown) VH: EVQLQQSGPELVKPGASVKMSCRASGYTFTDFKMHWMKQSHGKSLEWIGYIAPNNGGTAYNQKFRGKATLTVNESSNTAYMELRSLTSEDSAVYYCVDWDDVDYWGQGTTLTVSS VL: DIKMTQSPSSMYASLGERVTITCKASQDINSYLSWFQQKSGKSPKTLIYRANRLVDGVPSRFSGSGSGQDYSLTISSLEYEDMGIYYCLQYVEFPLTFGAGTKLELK : 0.08 OD450
556F6B8 (LAG-3 mouse-human chimeric antibody) (antibody, V domains shown, also called 556F8B8) VH: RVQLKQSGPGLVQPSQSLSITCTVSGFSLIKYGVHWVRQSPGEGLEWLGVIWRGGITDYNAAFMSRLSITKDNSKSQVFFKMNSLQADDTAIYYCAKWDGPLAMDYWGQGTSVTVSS VL: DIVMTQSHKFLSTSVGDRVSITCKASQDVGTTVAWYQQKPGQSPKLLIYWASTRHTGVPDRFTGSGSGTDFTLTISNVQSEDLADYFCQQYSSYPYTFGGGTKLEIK : 0.11 OD450
